// data source = patent US8512703B2

- TESTED ON: T1, Class I HLA molecule A*1101 in recombinant form (UniProt P04439 25-302)
- T1 MHC heavy: not shown
- MEASUREMENT DESCRIPTION: iTopia ELISA-like peptide-HLA binding
The reader will find reported Bond results values listed item by item below.
Give the quantity in %, number only.

Look up Bond results: IVLTQSPGT [VK3-20 peptide No 2 IVLTQSPGT]
1

Look up Bond results: VYYCQQYGS [VK3-20 peptide No 86 VYYCQQYGS]
1

Look up Bond results: QYGSSPRTF [VK3-20 peptide No 91 QYGSSPRTF]
1

New cases:
Look up Bond results: FTLTISRLE [VK3-20 peptide No 72 FTLTISRLE]
4
